test.method.notes: Metabolic stability in human liver microsomes assessed as compound remaining at 1 uM after 1 hr in presence of NADPH
Assay type: ADME, Microsome
conditions: read-out: Stability
parameter.measured: remaining at 1 h, 1 µM (%)

structure | observed.value
CCCn1/c(=N/c2ccc(OC(F)(F)F)cc2)n(Cc2ccc(C(=O)Nc3nnn[nH]3)cc2)c2cc(Cl)c(Cl)cc21 | 40
CCCOc1cc(C(F)(F)F)cc2c1n(C)/c(=N/c1ccc(C(C)(C)C)cc1)n2Cc1ccc(C(=O)Nc2nnn[nH]2)cc1 | 58
CCCCOc1cc(C(F)(F)F)cc2c1n(C)/c(=N/c1ccc(OC(F)(F)F)cc1)n2Cc1ccc(C(=O)Nc2nnn[nH]2)cc1 | 76
CCCCOc1cc(Cl)cc2c1n(C)/c(=N/c1ccc(OC(F)(F)F)cc1)n2Cc1ccc(C(=O)Nc2nnn[nH]2)cc1 | 52
CCOc1cc(C(F)(F)F)cc2c1n(C)/c(=N/c1ccc(OC(F)(F)F)cc1)n2Cc1ccc(C(=O)Nc2nnn[nH]2)cc1 | 34

A = COc1cc(Cl)cc2c1n(C)/c(=N/c1ccc(OC(F)(F)F)cc1)n2Cc1ccc(C(=O)Nc2nnn[nH]2)cc1
B = CCCOc1cc(Cl)cc2c1n(C)/c(=N/c1ccc(OC(F)(F)F)cc1)n2Cc1ccc(C(=O)Nc2nnn[nH]2)cc1
C = Cn1/c(=N/c2ccc(OC(F)(F)F)cc2)n(Cc2ccc(C(=O)Nc3nnn[nH]3)cc2)c2cc(Cl)c(Cl)cc21
D = CCCOc1cc(C(F)(F)F)cc2c1n(C)/c(=N/c1ccc(C(F)(F)F)cc1)n2Cc1ccc(C(=O)Nc2nnn[nH]2)cc1
List from greatest to least remaining at 1 h, 1 µM. Order the labels as requested and give them as your answer.
B, D, A, C
